System: AsPC-1
Assay: Anti-proliferative 2D CTG assay, AsPC-1
Assay type: cell-based
Details: Homo sapiens, ASPC1, 96 h, AsPC-1 cells, 4 days incubation, read-out: AsPC-1 cell IC50
EXPERIMENTAL READOUT: IC50
Note: state the figure and append the unit.

>>> assay_result("C#Cc1c(F)ccc2cc(O)cc(-c3ncc4c(N5C[C@@H]6CC[C@](CC)(C5)N6)nc(OC[C@@]56CCCN5C/C(=C\\F)C6)nc4c3F)c12")
"16.3 nM"

Provide measured IC50 value, entry: [2H]C([2H])([2H])C12CCC(CN(c3nc(OCC45CC(=C)CN4CC(=C)C5)nc4c(F)c(-c5cc(O)cc6ccc(F)c(C#C)c56)ncc34)C1)N2 (stereo not drawn) 48.9 nM

Provide measured IC50 value, entry: `C#Cc1c(F)ccc2cc(O)cc(-c3ncc4c(N5C[C@@H]6CC[C@](CC)(C5)N6)nc(OC[C@@]56CCCN5C/C(=C/F)C6)nc4c3F)c12` 39.6 nM
